Reference source for all entries: patent US20260317319A1

- assay system: 5-HT2C receptor (Homo sapiens)
- Sequence (P28335 33-458): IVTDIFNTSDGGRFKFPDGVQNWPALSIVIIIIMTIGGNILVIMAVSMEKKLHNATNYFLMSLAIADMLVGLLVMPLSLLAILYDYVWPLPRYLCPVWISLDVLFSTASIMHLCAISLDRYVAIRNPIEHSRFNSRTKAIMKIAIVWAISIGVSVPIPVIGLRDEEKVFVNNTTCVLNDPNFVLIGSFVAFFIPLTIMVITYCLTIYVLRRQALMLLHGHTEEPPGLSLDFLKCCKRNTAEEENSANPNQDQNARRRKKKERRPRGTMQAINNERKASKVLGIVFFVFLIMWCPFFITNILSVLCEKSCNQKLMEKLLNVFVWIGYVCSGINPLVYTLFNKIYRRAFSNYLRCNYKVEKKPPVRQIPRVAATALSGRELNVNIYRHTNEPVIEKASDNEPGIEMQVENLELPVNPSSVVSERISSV
- test details: cell-based
- cond: agonist, Ca2+ flux, Eurofins DiscoverX protocol, max dose; read-out: 5-HT2C % Act @ Max Dose
Emax reference
Please answer in the form of a number followed by its unit of measurement.

For orientation, consider the following solved cases.
CCCN1C[C@H](C(=O)N(CC)CC)C=C2c3cccc4[nH]cc(c34)C[C@H]21 : 107%
CCN(CC)C(=O)[C@@H]1C=C2c3cccc4[nH]cc(c34)C[C@H]2N(Cc2ccccc2OC)C1 : 13.4%

Consider the molecule shown here: CCN(CC)C(=O)[C@@H]1C=C2c3cccc4[nH]cc(c34)C[C@H]2N(Cc2cccc(F)c2)C1 What is its recorded Emax?
14.5%

Consider the molecule shown here: CCN(CC)C(=O)[C@@H]1C=C2c3cccc4[nH]cc(c34)C[C@H]2N(Cc2ccc(OC)cc2)C1 What is its recorded Emax?
1.7%

Consider the molecule shown here: CCN(CC)C(=O)[C@@H]1C=C2c3cccc4[nH]cc(c34)C[C@H]2N(CCCF)C1 What is its recorded Emax?
105%

Consider the molecule shown here: CCCN1C[C@@H](C(=O)N[C@H](C)CC)C=C2c3cccc4[nH]cc(c34)C[C@H]21 What is its recorded Emax?
109%

Consider the molecule shown here: CCCN1C[C@H](C(=O)N2[C@@H](C)C[C@@H]2C)C=C2c3cccc4[nH]cc(c34)C[C@H]21 What is its recorded Emax?
111%
